# Tested on: L1210FR murine lymphocytic leukemia cell line (BR+)
# measurement-protocol: standard MTT cytotoxicity assay, continuous incubation
# Type: cell-based
# condition: read-out: Cytotoxicity IC50, L1210FR, Assay 1; 37 °C, 72 h, no GSH-OEt
readout-type: pIC50
Remember the convention: pIC50 equals -log10 of concentration in molar.

Item under review: CC(=O)O[C@@]12CO[C@@H]1C[C@H](O)[C@@]1(C)C(=O)[C@H](OC(=O)C3CC3)C3=C(C)[C@@H](OC(=O)[C@H](O)[C@H](C=C(C)C)NC(=O)OC(C)(C)C)C[C@@](O)([C@@H](OC(=O)c4ccccc4)[C@H]21)C3(C)C [Taxoid 3, SB-T-1214, reference compound] . Reported pIC50? 8.63

----------
# System: L1210 murine lymphocytic leukemia cell line (BR−)
# measurement-protocol: standard MTT cytotoxicity assay, continuous incubation
# Type: cell-based
# condition: read-out: Cytotoxicity IC50, L1210; incubation at 37 °C for 48 h
readout-type: pIC50
Remember the convention: pIC50 equals -log10 of concentration in molar.

Item under review: CC(=O)O[C@@]12CO[C@@H]1C[C@H](O)[C@@]1(C)C(=O)[C@H](OC(=O)C3CC3)C3=C(C)[C@@H](OC(=O)[C@H](O)[C@H](C=C(C)C)NC(=O)OC(C)(C)C)C[C@@](O)([C@@H](OC(=O)c4ccccc4)[C@H]21)C3(C)C [Taxoid 3, SB-T-1214, reference compound] . Reported pIC50? 8.15

----------
# Tested on: WI38 human lung fibroblast cell line (BR−)
# measurement-protocol: standard MTT cytotoxicity assay, continuous incubation
# Assay type: cell-based
# condition: read-out: Cytotoxicity IC50, WI38, Assay 1; 37 °C, 72 h, no GSH-OEt
readout-type: pIC50
Remember the convention: pIC50 equals -log10 of concentration in molar.

Item under review: CC(=O)O[C@@]12CO[C@@H]1C[C@H](O)[C@@]1(C)C(=O)[C@H](OC(=O)C3CC3)C3=C(C)[C@@H](OC(=O)[C@H](O)[C@H](C=C(C)C)NC(=O)OC(C)(C)C)C[C@@](O)([C@@H](OC(=O)c4ccccc4)[C@H]21)C3(C)C [Taxoid 3, SB-T-1214, reference compound] . Reported pIC50? 8.31

----------
# System: BR+ cancer cell lines (MX-1, L1210FR, ID8)
# measurement-protocol: MTT cytotoxicity, text summaries pooled over BR+ cancer cell lines
# Assay type: cell-based
# condition: read-out: Cytotoxicity IC50, MX-1 and L1210FR, free drug, range; 72 h incubation (Assay 1)
readout-type: IC50

Item under review: CC(=O)O[C@@]12CO[C@@H]1C[C@H](O)[C@@]1(C)C(=O)[C@H](OC(=O)C3CC3)C3=C(C)[C@@H](OC(=O)[C@H](O)[C@H](C=C(C)C)NC(=O)OC(C)(C)C)C[C@@](O)([C@@H](OC(=O)c4ccccc4)[C@H]21)C3(C)C [Taxoid 3, SB-T-1214, reference compound] . Reported IC50? 2.32 to 2.66 nM

----------
# Test system: ID8 murine ovarian carcinoma cell line (BR+)
# measurement-protocol: standard MTT cytotoxicity assay, continuous incubation
# Type: cell-based
# condition: read-out: Cytotoxicity IC50, ID8; incubation at 37 °C for 48 h
readout-type: pIC50
Remember the convention: pIC50 equals -log10 of concentration in molar.

Item under review: CC(=O)O[C@@]12CO[C@@H]1C[C@H](O)[C@@]1(C)C(=O)[C@H](OC(=O)C3CC3)C3=C(C)[C@@H](OC(=O)[C@H](O)[C@H](C=C(C)C)NC(=O)OC(C)(C)C)C[C@@](O)([C@@H](OC(=O)c4ccccc4)[C@H]21)C3(C)C [Taxoid 3, SB-T-1214, reference compound] . Reported pIC50? 9.77

----------
# System: WI38 human lung fibroblast cell line (BR−)
# measurement-protocol: standard MTT cytotoxicity assay, continuous incubation
# Assay type: cell-based
# condition: read-out: Cytotoxicity IC50, WI38; incubation at 37 °C for 48 h
readout-type: pIC50
Remember the convention: pIC50 equals -log10 of concentration in molar.

Item under review: CC(=O)O[C@@]12CO[C@@H]1C[C@H](O)[C@@]1(C)C(=O)[C@H](OC(=O)C3CC3)C3=C(C)[C@@H](OC(=O)[C@H](O)[C@H](C=C(C)C)NC(=O)OC(C)(C)C)C[C@@](O)([C@@H](OC(=O)c4ccccc4)[C@H]21)C3(C)C [Taxoid 3, SB-T-1214, reference compound] . Reported pIC50? 8.28

----------
# Test system: L1210FR murine lymphocytic leukemia cell line (BR+)
# measurement-protocol: standard MTT cytotoxicity assay, continuous incubation
# Type: cell-based
# condition: read-out: Cytotoxicity IC50, L1210FR; incubation at 37 °C for 48 h
readout-type: pIC50
Remember the convention: pIC50 equals -log10 of concentration in molar.

Item under review: CC(=O)O[C@@]12CO[C@@H]1C[C@H](O)[C@@]1(C)C(=O)[C@H](OC(=O)C3CC3)C3=C(C)[C@@H](OC(=O)[C@H](O)[C@H](C=C(C)C)NC(=O)OC(C)(C)C)C[C@@](O)([C@@H](OC(=O)c4ccccc4)[C@H]21)C3(C)C [Taxoid 3, SB-T-1214, reference compound] . Reported pIC50? 8.38

----------
# System: MX-1 human breast carcinoma cell line (BR+)
# measurement-protocol: standard MTT cytotoxicity assay, continuous incubation
# Assay type: cell-based
# condition: read-out: Cytotoxicity IC50, MX-1, Assay 1; 37 °C, 72 h, no GSH-OEt
readout-type: IC50 (nM)
Report the figure in nM without appending any unit label.

Item under review: CC(=O)O[C@@]12CO[C@@H]1C[C@H](O)[C@@]1(C)C(=O)[C@H](OC(=O)C3CC3)C3=C(C)[C@@H](OC(=O)[C@H](O)[C@H](C=C(C)C)NC(=O)OC(C)(C)C)C[C@@](O)([C@@H](OC(=O)c4ccccc4)[C@H]21)C3(C)C [Taxoid 3, SB-T-1214, reference compound] . Reported IC50? 2.66

----------
# System: MX-1 human breast carcinoma cell line (BR+)
# measurement-protocol: standard MTT cytotoxicity assay, continuous incubation
# Type: cell-based
# condition: read-out: Cytotoxicity IC50, MX-1; incubation at 37 °C for 48 h
readout-type: pIC50
Remember the convention: pIC50 equals -log10 of concentration in molar.

Item under review: CC(=O)O[C@@]12CO[C@@H]1C[C@H](O)[C@@]1(C)C(=O)[C@H](OC(=O)C3CC3)C3=C(C)[C@@H](OC(=O)[C@H](O)[C@H](C=C(C)C)NC(=O)OC(C)(C)C)C[C@@](O)([C@@H](OC(=O)c4ccccc4)[C@H]21)C3(C)C [Taxoid 3, SB-T-1214, reference compound] . Reported pIC50? 8.38
